Measured pEC50, listed per entry for reference.
Tested on: HCV replicon in Huh7 cells
Assay: HCV replicon cell-based assay
Set-up: species or system HCV strain 1B
Conditions: Hepatitis C virus, Huh-7; HCV replicon, Huh7 cells; read-out: EC50 range
pEC50: −log10 of the molar value.

Ask: For "C=C[C@@H]1C[C@]1(NC(=O)[C@@H]1C[C@@H](Oc2nccc3cc(-n4cccn4)ccc23)CN1C(=O)[C@@H](NC(=O)OC(C)(C)C)C(C)(C)C)C(=O)NS(=O)(=O)C1CC1" , what is its reported pEC50?
Reply: > 7.00

Ask: For C=CC1C[C@]1(NC(=O)[C@@H]1C[C@@H](Oc2nccc(-c3ccco3)n2)CN1C(=O)[C@@H](NC(=O)CC1CC1)C(C)(C)C)C(=O)NS(=O)(=O)C1CC1 (some centres unmarked) , what is its reported pEC50?
Reply: 5.00 to 6.00

Ask: For C=CC1C[C@]1(NC(=O)[C@@H]1C[C@@H](COc2ccnc(-c3cccs3)c2)CN1C(=O)[C@@H](NC(=O)OC)C(C)(C)C)C(=O)NS(=O)(=O)C1CC1 (some centres unmarked) , what is its reported pEC50?
Reply: 4.00 to 5.00

Ask: For "C=C[C@@H]1C[C@]1(NC(=O)[C@@H]1C[C@@H](Oc2ncc(Cl)c3ccc(OC)cc23)CN1C(=O)[C@@H](NC(=O)OC(C)(C)C)C(C)(C)C)C(=O)NS(=O)(=O)C1CC1" , what is its reported pEC50?
Reply: 4.00 to 5.00

Ask: For C=CC1C[C@]1(NC(=O)[C@@H]1C[C@@H](Oc2nc3c(c4ccccc24)CCC3)CN1C(=O)[C@@H](NC(=O)OC(C)(C)C)C(C)(C)C)C(=O)NS(=O)(=O)C1CC1 (some centres unmarked) , what is its reported pEC50?
Reply: > 7.00

---

Target: HCV NS3/4A protease complex, H77C strain (Hepatitis C virus genotype 1a, UniProt P27958, C1454S)
Construct: recombinant HCV NS3/4A protease complex (amino acids 1027 to 1711); inferred from pET21b vector and Ni-NTA purification
Sequence (P27958 1027-1657 C1454S): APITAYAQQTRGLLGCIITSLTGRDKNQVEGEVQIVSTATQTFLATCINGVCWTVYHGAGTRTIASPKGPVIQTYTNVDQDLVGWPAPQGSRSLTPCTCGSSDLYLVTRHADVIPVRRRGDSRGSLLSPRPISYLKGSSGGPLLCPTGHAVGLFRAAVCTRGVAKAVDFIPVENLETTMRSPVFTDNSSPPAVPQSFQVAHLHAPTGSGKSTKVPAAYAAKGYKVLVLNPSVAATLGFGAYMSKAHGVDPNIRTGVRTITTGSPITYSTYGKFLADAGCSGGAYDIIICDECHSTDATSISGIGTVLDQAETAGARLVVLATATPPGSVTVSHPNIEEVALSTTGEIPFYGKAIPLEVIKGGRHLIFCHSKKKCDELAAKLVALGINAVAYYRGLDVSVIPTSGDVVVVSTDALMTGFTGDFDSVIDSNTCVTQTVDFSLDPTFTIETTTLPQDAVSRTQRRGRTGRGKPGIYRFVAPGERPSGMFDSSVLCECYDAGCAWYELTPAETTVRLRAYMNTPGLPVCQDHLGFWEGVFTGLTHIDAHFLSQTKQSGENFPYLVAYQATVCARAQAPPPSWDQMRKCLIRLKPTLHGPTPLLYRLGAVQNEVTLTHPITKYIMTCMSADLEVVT
Sequence (P27958 1658-1714 partner, looked up, stated change not applied): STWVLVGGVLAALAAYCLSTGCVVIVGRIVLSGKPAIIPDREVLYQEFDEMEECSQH
Assay: Recombinant HCV NS3/4A protease complex FRET peptide assay (H77C strain)
observation_type: IC50 (nM)
Form entry: value (nM) — number only.

Ask: For "C=C[C@@H]1C[C@]1(NC(=O)[C@@H]1C[C@@H](Oc2nc(C3CC3)cc3ccccc23)CN1C(=O)[C@@H](NC(=O)OC(C)(C)C)C(C)(C)C)C(=O)NS(=O)(=O)C1CC1" , what is its reported IC50?
Reply: 3

---

Measured pIC50, listed per entry for reference.
Molecular target: HCV NS3/4A protease complex, BMS strain (UniProt P27958, C1454S/C1711G, species not given/STRAIN_BMS)
Test: Recombinant HCV NS3/4A protease complex FRET peptide assay (BMS strain)
Type: biochemical, HCV genotype 1a
Conditions: NS3/4A BMS strain; read-out: IC50 range
pIC50: −log10 of the molar value.

Ask: For C=C[C@@H]1C[C@]1(NC(=O)[C@@H]1C[C@@H](Oc2cncc(-c3ccoc3)c2)CN1C(=O)[C@@H](NC(=O)OC(C)(C)C)C(C)(C)C)C(=O)NS(=O)(=O)C1CC1 [Compound 424] , what is its reported pIC50?
Reply: > 7.00

Ask: For CC[C@@H]1C[C@]1(NC(=O)[C@@H]1C[C@@H](Oc2ncc(OC)c3ccccc23)CN1C(=O)[C@@H](NC(=O)OC(C)(C)C)C(C)(C)C)C(=O)NS(=O)(=O)C1CC1 [Compound 291] , what is its reported pIC50?
Reply: > 7.00

Ask: For C=C[C@@H]1C[C@]1(NC(=O)[C@@H]1C[C@@H](Oc2nccc3cc(-n4cccn4)ccc23)CN1C(=O)[C@@H](NC(=O)OC(C)(C)C)C(C)(C)C)C(=O)NS(=O)(=O)C1CC1 [Compound 21] , what is its reported pIC50?
Reply: > 7.00

Ask: For C=CC1C[C@]1(NC(=O)[C@@H]1C[C@@H](Oc2noc3ccccc23)CN1C(=O)[C@@H](NC(=O)OC(C)(C)C)C(C)(C)C)C(=O)NS(=O)(=O)C1CC1 (some centres unmarked) [Compound 334] , what is its reported pIC50?
Reply: 6.00 to 7.00

Ask: For C=C[C@@H]1C[C@]1(NC(=O)[C@@H]1C[C@@H](Oc2cc(-c3ccccc3)nc3nc(C)ccc23)CN1C(=O)[C@@H](NC(=O)OC(C)(C)C)C(C)(C)C)C(=O)NS(=O)(=O)C1CC1 [Compound 2] , what is its reported pIC50?
Reply: > 7.00

---

System: HCV replicon in Huh7 cells
Assay: HCV replicon cell-based assay
Design: species or system HCV strain 1B
Conditions: Hepatitis C virus, Huh-7; HCV replicon, Huh7 cells; read-out: EC50 range
observation_type: EC50

- molecule: "C=C[C@@H]1C[C@]1(NC(=O)[C@@H]1C[C@@H](Oc2nccc3cc(OC)ccc23)CN1C(=O)[C@@H](NC(=O)OC(C)(C)C)[C@@H](C)OC(C)(C)C)C(=O)NS(=O)(=O)C1CC1"
  target_desc: "HCV replicon in Huh7 cells"
  EC50: "100 to 1000 nM"
- molecule: "C=C[C@@H]1C[C@]1(NC(=O)[C@@H]1C[C@@H](Oc2nccc3ccccc23)CN1C(=O)[C@@H](NC(=O)OCCOC)C(C)(C)C)C(=O)NS(=O)(=O)C1CC1"
  target_desc: "HCV replicon in Huh7 cells"
  EC50: "1000 to 10000 nM"
- molecule: "C=C[C@@H]1C[C@]1(NC(=O)[C@@H]1C[C@@H](Oc2nccc3cccc(C)c23)CN1C(=O)[C@@H](NC(=O)OC(C)(C)C)C(C)(C)C)C(=O)NS(=O)(=O)C1CC1"
  target_desc: "HCV replicon in Huh7 cells"
  EC50: "100 to 1000 nM"

Ask: For C=CC1C[C@]1(NC(=O)[C@@H]1C[C@@H](Oc2ccnc3c(F)cccc23)CN1C(=O)[C@@H](NC(=O)OC(C)(C)C)C(C)(C)C)C(=O)NS(=O)(=O)C1CC1 (stereo partly shown) , what is its reported EC50?
Reply: < 100 nM

Ask: For C=CC1C[C@]1(NC(=O)[C@@H]1C[C@@H](Oc2nc(-c3cccc(N(C)C)c3)cc3cc(OC)ccc23)CN1C(=O)[C@@H](NC(=O)OC(C)(C)C)C(C)(C)C)C(=O)NS(=O)(=O)C1CC1 (stereo partly shown) , what is its reported EC50?
Reply: < 100 nM

---

System: HCV replicon in Huh7 cells
Assay: HCV replicon cell-based assay
Design: species or system HCV strain 1B
Conditions: Hepatitis C virus, Huh-7; HCV replicon, Huh7 cells; read-out: EC50 range
Measured EC50, listed per entry for reference.

Here are 3 compounds together with their reported answers.
- compound: "C=CC1CC1(NC(=O)[C@@H]1C[C@@H](Oc2cc(CC)nc3c(C)noc23)CN1C(=O)[C@@H](NC(=O)OC(C)(C)C)C(C)(C)C)C(=O)NS(=O)(=O)C1CC1 (stereo partly shown)"
  observed_result: "0.1 to 1 µM"
- compound: "CC[C@@H]1C[C@]1(NC(=O)[C@@H]1C[C@@H](Oc2nccc3cccc(C)c23)CN1C(=O)[C@@H](NC(=O)OC(C)(C)C)C(C)(C)C)C(=O)NS(=O)(=O)C1CC1"
  observed_result: "1 to 10 µM"
- compound: "C=CC1C[C@]1(NC(=O)[C@@H]1C[C@@H](COc2cccc(Br)c2)CN1C(=O)[C@@H](NC(=O)OC)C(C)(C)C)C(=O)NS(=O)(=O)C1CC1 (stereo partly shown)"
  observed_result: "10 to 100 µM"

Ask: Test system HCV replicon in Huh7 cells; read-out EC50; what value for "C=C[C@@H]1C[C@]1(NC(=O)[C@@H]1C[C@@H](Oc2nccc3cc(OC)ccc23)CN1C(=O)[C@@H](NC(=O)OC)C(C)(C)C)C(=O)NS(=O)(=O)C1CC1" ?
Reply: 0.1 to 1 µM

Ask: Test system HCV replicon in Huh7 cells; read-out EC50; what value for "C=C[C@@H]1C[C@]1(NC(=O)[C@@H]1C[C@@H](Oc2cncc(-c3ccncc3)c2)CN1C(=O)[C@@H](NC(=O)OC(C)(C)C)C(C)(C)C)C(=O)NS(=O)(=O)C1CC1" ?
Reply: 1 to 10 µM

Ask: Test system HCV replicon in Huh7 cells; read-out EC50; what value for "CC[C@@H]1C[C@]1(NC(=O)[C@@H]1C[C@@H](Oc2nccc3c(C)cccc23)CN1C(=O)[C@@H](NC(=O)OC(C)(C)C)C(C)(C)C)C(=O)NS(=O)(=O)C1CC1" ?
Reply: 0.1 to 1 µM

Ask: Test system HCV replicon in Huh7 cells; read-out EC50; what value for "C=C[C@@H]1C[C@]1(NC(=O)[C@@H]1C[C@@H](Oc2nccc3cc(OC)ccc23)CN1C(=O)[C@@H](NC(=O)OC(C)(C)CC)[C@H](C)OC)C(=O)NS(=O)(=O)C1CC1" ?
Reply: < 0.1 µM

Ask: Test system HCV replicon in Huh7 cells; read-out EC50; what value for C=C[C@@H]1C[C@]1(NC(=O)[C@@H]1CC(Oc2nc(-c3ccccc3)cc3ccccc23)CN1C(=O)[C@@H](NC(=O)OC(C)(C)C)[C@H](C)O)C(=O)NS(=O)(=O)C1CC1 (stereo partly shown) ?
Reply: 0.1 to 1 µM

Ask: Test system HCV replicon in Huh7 cells; read-out EC50; what value for "C=C[C@@H]1C[C@]1(NC(=O)[C@@H]1C[C@@H](Oc2nccc3cc(OC)ccc23)CN1C(=O)[C@H](CC(=O)O)NC(=O)OC(C)(C)C)C(=O)NS(=O)(=O)C1CC1" ?
Reply: 1 to 10 µM

Ask: Test system HCV replicon in Huh7 cells; read-out EC50; what value for "C=C[C@@H]1C[C@]1(NC(=O)[C@@H]1C[C@@H](Oc2ccnc3cc(OC)ccc23)CN1C(=O)[C@@H](NC(=O)OC(C)(C)C)C(C)(C)C)C(=O)NS(=O)(=O)C1CC1" ?
Reply: < 0.1 µM
